target: Tyrosine-protein kinase Fyn (Homo sapiens); assay: Inhibition of human recombinant full length GST-tagged FYN (M1 to L537 residues) assessed as residual activity using poly (Glu,Tyr) as substrate in presence of ATP and Ci(gamma33-P) ATP at 1 uM measured by microplate reader assay
Result Type: Activity (%)
Numbers only, in %.

Study these solved cases before continuing.
[
  {
    "Mol": "Cc1c(NC(=O)c2ccccn2)cccc1-c1cc2[nH]cnc2c(Nc2ccc(C(=O)N3CCOCC3)cc2)n1",
    "Activity, %": 78.8
  },
  {
    "Mol": "Cc1c(NC(=O)c2ccc(C(C)(C)C)cc2)cccc1-c1cc2[nH]cnc2c(Nc2ccc(C(=O)N3CCOCC3)cc2)n1",
    "Activity, %": 80.6
  },
  {
    "Mol": "CC(=O)Nc1cccc(-c2cc3[nH]cnc3c(Nc3ccc(C(=O)N4CCOCC4)cc3)n2)c1C",
    "Activity, %": 84
  },
  {
    "Mol": "Cc1c(NC(=O)c2c[nH]cn2)cccc1-c1cc2[nH]cnc2c(Nc2ccc(C(=O)N3CCOCC3)cc2)n1",
    "Activity, %": 36.6
  },
  {
    "Mol": "C=CC(=O)N1CCC[C@H](n2nc(-c3ccc(Oc4ccccc4)cc3)c3c(N)ncnc32)C1",
    "Activity, %": 57.5
  }
]

Quick batch: Activity for everything below.
1. Cc1c(NC(=O)c2ncc[nH]2)cccc1-c1cc2[nH]cnc2c(Nc2ccc(C(=O)N3CCOCC3)cc2)n1
2. Cc1c(NC(=O)c2ccc(C(C)(C)C)cc2)cccc1-c1cc2c(ncn2C)c(Nc2ccc(C(=O)N3CCOCC3)cc2)n1

Response:
1: 56.3; 2: 68.8

====

Field: Activity. Provide a value for each of the compounds that follow.
biological target: Tyrosine-protein kinase SYK (Homo sapiens) (UniProt P43405); test: Inhibition of human recombinant GST-tagged SYK (M1 to N635 residues) assessed as residual activity using poly (Glu,Tyr) as substrate in presence of ATP and Ci(gamma33-P) ATP at 1 uM measured by microplate reader assay
Numbers only, in %.

Recorded Activity, per entry:
[
  {
    "Mol": "Cc1c(NC(=O)c2ccc(C(C)(C)C)cc2)cccc1-c1cc2c(ncn2C)c(Nc2ccc(C(=O)N3CCOCC3)cc2)n1",
    "Unit Annotation": "%",
    "Activity": 74.3
  },
  {
    "Mol": "CC(C)(C)c1ccc(C(=O)Nc2cccc(-c3cc4[nH]cnc4c(Nc4ccc(C(=O)N5CCOCC5)cc4)n3)c2)cc1",
    "Unit Annotation": "%",
    "Activity": 71.4
  },
  {
    "Mol": "Cc1c(NC(=O)c2ncc[nH]2)cccc1-c1cc2[nH]cnc2c(Nc2ccc(C(=O)N3CCOCC3)cc2)n1",
    "Unit Annotation": "%",
    "Activity": 66
  }
]

Give Activity for each listed item.
1. Cc1c(NC(=O)c2ccccn2)cccc1-c1cc2[nH]cnc2c(Nc2ccc(C(=O)N3CCOCC3)cc2)n1
2. C=CC(=O)N1CCC[C@H](n2nc(-c3ccc(Oc4ccccc4)cc3)c3c(N)ncnc32)C1
3. Cc1c(NC(=O)c2cccc(C(C)(C)C)c2)cccc1-c1cc2[nH]cnc2c(Nc2ccc(C(=O)N3CCOCC3)cc2)n1
4. Cc1c(NC(=O)c2c[nH]cn2)cccc1-c1cc2[nH]cnc2c(Nc2ccc(C(=O)N3CCOCC3)cc2)n1

Response:
72.5
77.3
74.1
76.5

Just for reference, ChEMBL document CHEMBL4819006 is where these values come from.
